Reported normalized growth values for the following molecules.
# test name: chemical genetic growth profiling, strain panel (AID 1159580);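 also: tested at 20 µM; growth read once vehicle control cultures reached saturation at 30 °C; 1 = growth at the plate median or of vehicle wells; lower values mean less growth of the strain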
# condition parameters: S. cerevisiae deletion strains, growth OD, locus YNL222W, strain SSU72, hits give low values
Hit rate of the full screen: of about 5,500 compounds, about 2,000 (36%) were called active. Not shown: some 18% with an inconclusive outcome. The list shows a part of the results.
measured quantity: normalized growth

>>> quantitative_readout("N#CC1=C(N)C(C#N)(C#N)C2(CCCCC2)C2CCCC=C12 (stereo unspecified)")
0.982
>>> quantitative_readout("CN(C)/C=C/C(=O)c1ccc(C#Cc2ccccc2)cc1")
0.972
>>> quantitative_readout("CCCCCCCC1CCC/C1=N/OC(=O)c1cccs1 (stereo unspecified)")
1.02
>>> quantitative_readout("COc1cc(C(=O)Oc2c(Cl)cc(Cl)cc2C=Nc2cccc(C(F)(F)F)c2)cc(OC)c1OC")
0.969
>>> quantitative_readout("O=C(Nc1ccccn1)c1cc(-c2ccccc2)c(C(F)(F)F)s1")
0.941
>>> quantitative_readout("CCC1CCC(C)N(C(=S)Nc2ccc(Br)cc2C)C1 (stereo unspecified)")
0.963
